# ASSAY_TARGET: ABL2 (Homo sapiens, UniProt P42684)
# Construct: made in house; host or cells: T7 bacteriophage display
# Sequence (P42684 whole entry): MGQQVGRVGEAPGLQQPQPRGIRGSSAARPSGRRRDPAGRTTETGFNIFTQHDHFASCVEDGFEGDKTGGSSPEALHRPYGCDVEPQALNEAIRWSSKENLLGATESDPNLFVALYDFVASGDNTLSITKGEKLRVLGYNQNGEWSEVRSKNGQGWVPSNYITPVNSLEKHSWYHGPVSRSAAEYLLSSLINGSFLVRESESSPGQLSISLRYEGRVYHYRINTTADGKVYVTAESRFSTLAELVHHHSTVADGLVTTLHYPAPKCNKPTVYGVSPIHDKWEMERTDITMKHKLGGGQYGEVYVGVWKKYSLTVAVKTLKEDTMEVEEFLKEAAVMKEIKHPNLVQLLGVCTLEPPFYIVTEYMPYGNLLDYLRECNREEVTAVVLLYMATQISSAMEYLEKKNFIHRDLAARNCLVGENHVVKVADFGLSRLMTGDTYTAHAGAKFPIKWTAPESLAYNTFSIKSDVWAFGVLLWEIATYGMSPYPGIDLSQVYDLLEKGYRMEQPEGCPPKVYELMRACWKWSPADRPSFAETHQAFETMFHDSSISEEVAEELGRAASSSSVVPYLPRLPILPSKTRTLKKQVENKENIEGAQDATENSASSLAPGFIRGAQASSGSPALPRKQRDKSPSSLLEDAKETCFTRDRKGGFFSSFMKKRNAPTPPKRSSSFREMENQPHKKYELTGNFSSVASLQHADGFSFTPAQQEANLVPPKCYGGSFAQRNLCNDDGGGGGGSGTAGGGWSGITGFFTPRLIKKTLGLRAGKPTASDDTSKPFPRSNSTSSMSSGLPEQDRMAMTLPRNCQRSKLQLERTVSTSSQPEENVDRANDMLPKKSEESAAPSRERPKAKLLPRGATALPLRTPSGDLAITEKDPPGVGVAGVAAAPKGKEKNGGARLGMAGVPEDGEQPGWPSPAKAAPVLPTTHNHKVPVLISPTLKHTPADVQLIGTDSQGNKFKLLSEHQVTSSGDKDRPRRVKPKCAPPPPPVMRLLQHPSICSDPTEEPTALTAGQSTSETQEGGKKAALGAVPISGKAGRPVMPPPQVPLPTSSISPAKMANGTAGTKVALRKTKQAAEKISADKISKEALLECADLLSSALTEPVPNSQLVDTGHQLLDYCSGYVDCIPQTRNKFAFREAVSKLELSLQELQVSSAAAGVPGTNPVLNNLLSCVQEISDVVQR
# PROTOCOL_TEXT: ABL2 (DKIN) binding assay
RECORDED_ENDPOINT: Kd

What does the data say about its Kd? Entry: Oc1ccc(-c2cc3c(Sc4cccc(Cl)c4)ncnc3[nH]2)cc1
1 to 10 µM

----------
# ASSAY_TARGET: FLT3 (Homo sapiens, UniProt P36888)
# Sequence (P36888 27-993): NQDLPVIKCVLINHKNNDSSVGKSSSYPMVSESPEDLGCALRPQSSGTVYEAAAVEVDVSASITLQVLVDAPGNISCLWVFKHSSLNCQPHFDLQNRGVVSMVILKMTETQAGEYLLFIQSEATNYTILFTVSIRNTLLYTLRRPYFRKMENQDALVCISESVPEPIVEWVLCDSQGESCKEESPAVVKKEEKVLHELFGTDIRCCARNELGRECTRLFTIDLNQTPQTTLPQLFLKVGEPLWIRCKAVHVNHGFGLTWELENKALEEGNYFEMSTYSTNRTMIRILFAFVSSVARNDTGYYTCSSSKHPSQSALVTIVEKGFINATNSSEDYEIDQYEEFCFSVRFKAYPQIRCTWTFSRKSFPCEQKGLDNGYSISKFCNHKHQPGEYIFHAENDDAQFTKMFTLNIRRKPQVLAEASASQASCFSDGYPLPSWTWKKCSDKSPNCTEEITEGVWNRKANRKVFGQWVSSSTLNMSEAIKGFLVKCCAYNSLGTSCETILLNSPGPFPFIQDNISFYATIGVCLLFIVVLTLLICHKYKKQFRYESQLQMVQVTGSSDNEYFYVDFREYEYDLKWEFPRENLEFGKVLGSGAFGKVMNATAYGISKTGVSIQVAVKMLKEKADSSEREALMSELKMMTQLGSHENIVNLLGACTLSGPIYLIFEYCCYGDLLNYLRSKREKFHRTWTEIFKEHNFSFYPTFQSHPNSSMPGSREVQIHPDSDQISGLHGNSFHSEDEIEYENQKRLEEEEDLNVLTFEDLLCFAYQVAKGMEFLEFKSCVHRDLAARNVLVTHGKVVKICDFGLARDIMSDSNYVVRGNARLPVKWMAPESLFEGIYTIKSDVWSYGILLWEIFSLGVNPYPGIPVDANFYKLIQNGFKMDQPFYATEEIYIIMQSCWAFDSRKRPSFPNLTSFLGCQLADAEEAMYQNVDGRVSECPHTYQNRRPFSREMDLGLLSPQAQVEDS
pKd: −log10 of the molar value.
pKd values by entry

[
  {
    "COMPOUND": "CCOc1ccc(-c2cc3c(Sc4ccc(C)cc4)ncnc3n2CC)cc1 [Compound O12]",
    "pKd": "6.00 to 7.00"
  },
  {
    "COMPOUND": "Cc1ccc(Sc2ncnc3[nH]c(-c4ccc(O)cc4)cc23)cc1 [Compound L9]",
    "pKd": "6.00 to 7.00"
  },
  {
    "COMPOUND": "CC(C)Oc1ccc(-c2cc3c(Sc4ccccc4)ncnc3n2C(C)C)cc1 [Compound O9]",
    "pKd": "6.00 to 7.00"
  },
  {
    "COMPOUND": "COc1ccc(-c2cc3c(Sc4ccccc4)ncnc3n2C(C)C)cc1 [Compound O10]",
    "pKd": "6.00 to 7.00"
  },
  {
    "COMPOUND": "COc1ccc(-c2cc3c(Oc4ccc(C)cc4)ncnc3[nH]2)cc1 [Compound D14]",
    "pKd": "5.00 to 6.00"
  },
  {
    "COMPOUND": "COc1ccc(-c2cc3c(Sc4ccc(C)cc4)ncnc3n2C(C)C)cc1 [Compound O14]",
    "pKd": "5.00 to 6.00"
  },
  {
    "COMPOUND": "COc1ccc(-c2cc3c(Sc4ccccc4)ncnc3[nH]2)cc1 [Compound J16]",
    "pKd": "6.00 to 7.00"
  },
  {
    "COMPOUND": "COc1ccc(-c2cc3c(Sc4cc(C)cc(C)c4)ncnc3[nH]2)cc1 [Compound J5]",
    "pKd": "< 5.00"
  },
  {
    "COMPOUND": "Clc1ccccc1Sc1ncnc2[nH]ccc12 [Compound F1]",
    "pKd": "< 5.00"
  }
]

Switching to the query record.
Recorded pKd of COc1cccc(-c2cc3c(Oc4ccccc4)ncnc3[nH]2)c1 [Compound D24] , please.
6.00 to 7.00
